Assign mean fluorescence intensity to each entry below.
target: his-labeled human IL-13 (immunogen A) (human) (UniProt P35225); experiment: FACS blocking, biotin-IL-13 on IL-13Ra1/IL-4Ra HEK293 cells; antibody at 6.67 nM
Answer using only a numeral; do not append any unit.

// query Requested read-out: mean fluorescence intensity. Entry: 28A2E11 (lead antibody, mouse hybridoma) (antibody, V domains shown, Mouse monoclonal antibody purified from hybridoma supernatant on Protein G) VH: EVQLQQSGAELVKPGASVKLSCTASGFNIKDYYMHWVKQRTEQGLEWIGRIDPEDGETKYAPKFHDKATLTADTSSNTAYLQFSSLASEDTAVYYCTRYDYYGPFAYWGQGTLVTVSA VL: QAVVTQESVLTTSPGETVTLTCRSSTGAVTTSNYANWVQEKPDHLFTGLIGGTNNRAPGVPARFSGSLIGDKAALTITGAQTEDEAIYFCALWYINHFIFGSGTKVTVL
// result 28.8

// query Requested read-out: mean fluorescence intensity. Entry: 29D9H8 (lead antibody, mouse hybridoma) (antibody, V domains shown, Mouse monoclonal antibody purified from hybridoma supernatant on Protein G) VH: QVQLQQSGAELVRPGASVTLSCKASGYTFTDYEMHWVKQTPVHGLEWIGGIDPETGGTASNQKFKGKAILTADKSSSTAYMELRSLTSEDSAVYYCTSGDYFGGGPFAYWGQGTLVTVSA VL: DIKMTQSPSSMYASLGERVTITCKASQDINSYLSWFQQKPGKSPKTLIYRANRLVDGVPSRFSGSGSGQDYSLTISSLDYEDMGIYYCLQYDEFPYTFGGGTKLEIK
// result 16.6

// query Requested read-out: mean fluorescence intensity. Entry: c35E2C3 (mouse-human chimeric IL-13 antibody) (antibody, V domains shown) VH: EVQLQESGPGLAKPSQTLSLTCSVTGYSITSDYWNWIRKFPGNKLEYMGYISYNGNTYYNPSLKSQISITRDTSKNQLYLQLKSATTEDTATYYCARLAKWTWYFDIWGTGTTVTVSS VL: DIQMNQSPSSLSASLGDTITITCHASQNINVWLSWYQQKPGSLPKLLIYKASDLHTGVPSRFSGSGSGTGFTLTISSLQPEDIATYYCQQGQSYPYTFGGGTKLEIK
// result 19.5
